The measured values listed here are drawn from the supplement of paper PMC12855868.

B1: library; numbered along this chain (parent)
chain: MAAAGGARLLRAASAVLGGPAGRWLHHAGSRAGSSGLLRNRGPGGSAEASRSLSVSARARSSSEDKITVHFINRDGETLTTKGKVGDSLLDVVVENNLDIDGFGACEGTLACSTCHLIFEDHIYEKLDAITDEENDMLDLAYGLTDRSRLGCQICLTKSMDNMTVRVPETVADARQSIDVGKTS

- Variants of: B1
- experiment_notes: scaled log2 fold change in cell abundance, elesclomol vs control (0 = silent mean, 1 = nonsense mean) (scaled log2 ratio); higher = higher viability under elesclomol (loss of FDX1 cuproptosis function);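 further: variant abundance is its share of total variant reads in each endpoint sample, from next-generation sequencing of the integrated ORF PCR-amplified out of genomic DNA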
- experimental_conditions: with ABC1 FDX1 KO; elesclomol 5 nM; glucose 10 mM; 14 days
measured_metric: scaled log2 fold change
Answers are plain numbers.

Answered cases to consult:
changes	measured_metric	readout_number
G181S	scaled log2 fold change	0.113
T81F	scaled log2 fold change	0.141
L53D	scaled log2 fold change	-0.0291
R175H	scaled log2 fold change	0.468
D146S	scaled log2 fold change	-0.00471
H122W	scaled log2 fold change	0.634

Okay, here is my list. What is scaled log2 fold change for each of these?
1. E125M
2. G181P
3. F119A
4. K84Y

1. 0.0258
2. -0.164
3. 0.901
4. -0.449

Okay, here is my list. What is scaled log2 fold change for each of these?
1. K158M
2. K126T
3. S61R
4. G33I
5. N40C
6. K126P

1: 0.185; 2: -0.51; 3: -0.524; 4: 0.161; 5: -0.214; 6: 0.252

Okay, here is my list. What is scaled log2 fold change for each of these?
1. E125R
2. A57V
3. G19Y
4. S177A
5. I118S

[0.109, -0.164, 0.187, -0.0907, 0.159]

Okay, here is my list. What is scaled log2 fold change for each of these?
1. I123E
2. A13Y
3. A28K
4. G83E
5. G86Q
6. K82S
7. R147G

1: 0.111; 2: -0.585; 3: -0.114; 4: 0.881; 5: -0.2; 6: -0.449; 7: -0.409

Okay, here is my list. What is scaled log2 fold change for each of these?
1. D173Q
2. S46L
3. V92A
4. I118F
5. S62N
6. V85F
7. N73C
8. D75W

1. 0.224
2. 0.572
3. 0.494
4. -0.0055
5. 0.0847
6. 0.217
7. -0.441
8. 0.241

Okay, here is my list. What is scaled log2 fold change for each of these?
1. C152W
2. L17V
3. G44M
4. I130Q
5. K84V

1.13
-0.232
0.13
0.0588
0.289

Okay, here is my list. What is scaled log2 fold change for each of these?
1. N96V
2. M137T
3. I178Q
4. L25R

0.307
0.14
-0.0255
0.126

Name the recorded scaled log2 fold change of the item D101I in your answer.
-0.248
